We begin with a simple list: items and their reported % of organ targeting.
- Test system: mice
- TEST METHOD NOTES: In vivo delivery of FLuc-mRNA lipid nanoparticles in mice, in vivo imaging (IVIS)
- MEASUREMENT PARAMETERS: Fluc-mRNA LNP; route IM; organ: liver; formulation, molar ratio and N/P as in the table
// return numeric value only (unit: %, not printed)

Below, each entry is followed by its recorded % of organ targeting result.
| COMPOUND | % of organ targeting [%] |
| --- | --- |
| CCCCCCCC(CCCCCCC)OC(=O)CCCNC(=O)C(O)CN(CCN(C)CCN(CC(O)C(=O)NCCCC(=O)OC(CCCCCCC)CCCCCCC)CC(O)C(=O)NCCCC(=O)OC(CCCCCCC)CCCCCCC)CC(O)C(=O)NCCCC(=O)OC(CCCCCCC)CCCCCCC (stereo not drawn) [Compound L0383] | 29.05 |
| CCCCCCCCC(CCCCCC)C(=O)OCCCCNC(=O)C(O)CCN(CCCN(C)CCN(CC(O)C(=O)NCCCCOC(=O)C(CCCCCC)CCCCCCCC)CC(O)C(=O)NCCCCOC(=O)C(CCCCCC)CCCCCCCC)C(O)C(=O)NCCCCOC(=O)C(CCCCCC)CCCCCCCC (stereo not drawn) [Compound L0377] | 35.08 |
| CCCCCCCCC(CCCCCC)C(=O)OCCCCNC(=O)C(O)CN(CCCN(CC(O)C(=O)NCCCCOC(=O)C(CCCCCC)CCCCCCCC)CC(O)C(=O)NCCCCOC(=O)C(CCCCCC)CCCCCCCC)CCCN(CC(O)C(=O)NCCCCOC(=O)C(CCCCCC)CCCCCCCC)CC(O)C(=O)NCCCCOC(=O)C(CCCCCC)CCCCCCCC (stereo not drawn) [Compound L0378] | 37.15 |
| CCCCCCC(CCCCCC)C(=O)NCCNC(=O)C(O)CN(CCN(C)CCN(CC(O)C(=O)NCCNC(=O)C(CCCCCC)CCCCCC)CC(O)C(=O)NCCNC(=O)C(CCCCCC)CCCCCC)CC(O)C(=O)NCCNC(=O)C(CCCCCC)CCCCCC (stereo not drawn) [Compound L0380] | 61.06 |
| CCCCCCC(CCCCCC)C(=O)NCCNC(=O)C(O)CN(CCCN(C)CCCN(CC(O)C(=O)NCCNC(=O)C(CCCCCC)CCCCCC)CC(O)C(=O)NCCNC(=O)C(CCCCCC)CCCCCC)CC(O)C(=O)NCCNC(=O)C(CCCCCC)CCCCCC (stereo not drawn) [Compound L0379] | 35.55 |

Given item CCCCCCCC(CCCCCCC)OC(=O)CCCNC(=O)C(O)CN(CCCN(C)CCCN(CC(O)C(=O)NCCCC(=O)OC(CCCCCCC)CCCCCCC)CC(O)C(=O)NCCCC(=O)OC(CCCCCCC)CCCCCCC)CC(O)C(=O)NCCCC(=O)OC(CCCCCCC)CCCCCCC (stereo not drawn) [Compound L0382] , the value recorded as its % of organ targeting is 35.27

# % of organ targeting of CCCCCCCC(CCCCCCC)OC(=O)CCCNC(=O)C(O)CN(CCCN(CC(O)C(=O)NCCCC(=O)OC(CCCCCCC)CCCCCCC)CC(O)C(=O)NCCCC(=O)OC(CCCCCCC)CCCCCCC)CCCN(CC(O)C(=O)NCCCC(=O)OC(CCCCCCC)CCCCCCC)CC(O)C(=O)NCCCC(=O)OC(CCCCCCC)CCCCCCC (stereo not drawn) [Compound L0384] = 29.97

Lookup result for CCCCCCC(CCCCCC)C(=O)NCCOC(=O)C(O)CN(CCN(C)CCN(CC(O)C(=O)OCCNC(=O)C(CCCCCC)CCCCCC)CC(O)C(=O)OCCNC(=O)C(CCCCCC)CCCCCC)CC(O)C(=O)OCCNC(=O)C(CCCCCC)CCCCCC (stereo not drawn) [Compound L0362] ; measured % of organ targeting: 44.30

For reference, reported % of organ targeting for CCCCCCCCC(CCCCCC)C(=O)OCCCCNC(=O)C(O)CN(CCCN(C)CCCN(CC(O)C(=O)NCCCCOC(=O)C(CCCCCC)CCCCCCCC)CC(O)C(=O)NCCCCOC(=O)C(CCCCCC)CCCCCCCC)CC(O)C(=O)NCCCCOC(=O)C(CCCCCC)CCCCCCCC (stereo not drawn) [Compound L0376] stands at 30.06

The measured values listed here are drawn from patent US12233161B1.
